The origin of these recorded values is the supplement of paper PMC9732359.

# experimental.protocol: protein stability index of a GFP-peptide fusion (yeast GPS) (PSI 1-4); higher = more stable; sorted into four equal gates, so the index is relative within each strain
# cond: ubr1∆
Label Yes when protein stability index is at or above 3; otherwise label No.

Completed entries (count: 8):
{"biopolymer.sequence": "SVAEKEEIRSQIDHFKS [SWI3]", "answer.label": "No"}
{"biopolymer.sequence": "SLYQVDPSGSYFPWKAT [PRE8]", "answer.label": "Yes"}
{"biopolymer.sequence": "EITDASLNLQYVNYEIS [YML103C/NUP188]", "answer.label": "No"}
{"biopolymer.sequence": "RPKKVKLEGSENSEPPA [SNF2]", "answer.label": "Yes"}
{"biopolymer.sequence": "KSLVQYIELLPNADDIR [DIS3]", "answer.label": "No"}
{"biopolymer.sequence": "AKVNRPAKIVNFEKPKN [RPN5]", "answer.label": "Yes"}
{"biopolymer.sequence": "NGNLTSNQLISNYAASN [SWI1]", "answer.label": "Yes"}
{"biopolymer.sequence": "ADGLLQVLVCTATLAWG [BRR2]", "answer.label": "No"}

Task item: I'd appreciate it if you could say whether TSNDASNKKETKKKRKP [ITC1] has protein stability index at least equal to 3.
Reply: Yes

Task item: Please check the record TLVKGPKEPRLKSQMDT [SKI6] and state if its protein stability index is at or above 3.
Reply: Yes

Task item: Could you tell me if the measured protein stability index of GITHFRAGMTHEDEKLI [PRP8] reaches 3 or more?
Reply: Yes

Task item: Does protein stability index meet or surpass 3 for LKRNRIRNARSIRAEAV [POP1] ?
Reply: No

Task item: Quick check: does TEQTKSKNPLSLTEATK [YLR335W/NUP2] have protein stability index greater than or equal to 3?
Reply: Yes

Task item: Quick check: does KIAKRRQVYKPVLDNPF [POP3] have protein stability index greater than or equal to 3?
Reply: No

Task item: // inclusive: protein stability index at least 3? input: YVDFVPMYKELWINYIK [POP4]
Reply: No

Task item: Assess whether reported protein stability index for IAVLIELLEERFQDSNP [YCS4] sits at 3 or higher.
Reply: No

Task item: Determine whether measured protein stability index meets or exceeds 3 for RLTGSLLAHKVADEEAN [RPC37]
Reply: No

Task item: Determine whether this sequence has protein stability index no lower than 3: KLKEMQKVLNAHRQRAM [SMC4]
Reply: No

Task item: Textbook exercise: given the entry FDNVASVFMPLIFIACN [ECM29] , state whether its protein stability index is greater than or equal to 3.
Reply: No

Task item: Please tell me: is the sequence PQQQQQHLQFNGSSDAS [YDL088C/ASM4] at or over 3 in terms of protein stability index?
Reply: No

Task item: Confirm if protein stability index reported for the sequence YSVLLESPLSVAIQQGD [YML103C/NUP188] is 3 or above.
Reply: No

Task item: Can PQNEKPPAYALLGSCQT [RPC25] be said to have protein stability index at or above 3?
Reply: No

###

# experimental.protocol: protein stability index of a GFP-peptide fusion (yeast GPS) (PSI 1-4); higher = more stable; sorted into four equal gates, so the index is relative within each strain
# cond: doa10∆
Exercise: for every item that follows, state its recorded protein stability index.
One number for each entry.

Some sequences with recorded protein stability index:
{"biopolymer.sequence": "LNCCGSVARVEDHDVHS [IRR1]", "protein stability index": 1.98}
{"biopolymer.sequence": "LSIDKVLKKPNRAMEYD [RET1]", "protein stability index": 3.01}
{"biopolymer.sequence": "ADAKAFLDSMAQKYASI [FAS2]", "protein stability index": 3.07}
{"biopolymer.sequence": "PGKGILTTAREHHSSVK [FAS2]", "protein stability index": 3.07}
{"biopolymer.sequence": "PIMQTQMPLNSNGGNNM [SNF2]", "protein stability index": 3}
{"biopolymer.sequence": "KFFMKHGLILELQKIWQ [SRB5]", "protein stability index": 2.94}
{"biopolymer.sequence": "LPAYSGEIGDFFSSDWR [POP1]", "protein stability index": 3.04}
{"biopolymer.sequence": "SSLNLEDTPANDSSATR [RPB8]", "protein stability index": 2.92}

Parameter requested: protein stability index. Apply to each item below.
1. NNNDNNNSNTVASSTNF [SWI1]
2. AKGLVAYHQKYVDEQSK [RPS16A]
3. NFEAVFERLVPRGTAKL [SMC3]

Reply:
2.92
2.03
2.93

###

# experimental.protocol: protein stability index of a GFP-peptide fusion (yeast GPS) (PSI 1-4); higher = more stable; sorted into four equal gates, so the index is relative within each strain
# cond: doa10∆
quantity.measured: protein stability index
Give bare numbers.

{"biopolymer.sequence": "KLSNIWMQRQLIKGDAG [SRB2]", "quantity.measured": "protein stability index", "observed.measurement": 2.93}

I need protein stability index for every entry listed below, if you could help.
1. LCLTEFENCYLEGNDIH [FAS1]
2. IVAQSEVEVSTRDLFDL [RPO31]
3. LSEYDAIQKKDNKDKEG [YOR098C/NUP1]
4. AFEELEGSWDRGIPRIS [PRP8]
5. TVPNINFSGLNGGITNT [YOR098C/NUP1]

Reply:
1: 3.02; 2: 3.07; 3: 3.35; 4: 2.88; 5: 3.45

Task item: // protein stability index lookup, key: MSTKAQNPMRDLKIEKL [RPL11B]
Reply: 3.36

###

# experimental.protocol: protein stability index of a GFP-peptide fusion (yeast GPS) (PSI 1-4); higher = more stable; sorted into four equal gates, so the index is relative within each strain
# cond: san1∆
I would appreciate it if you labelled entries criterion met when protein stability index is 3 or higher, otherwise criterion not met.

{"biopolymer.sequence": "YKCTAAMEKYLLSKSKI [MTW1]", "answer.label": "criterion not met"}
{"biopolymer.sequence": "NGITLALIDAGISMFDY [SKI6]", "answer.label": "criterion not met"}
{"biopolymer.sequence": "LPLYEKNTLLERLKQLT [SWP82]", "answer.label": "criterion not met"}
{"biopolymer.sequence": "EDPKRRADTMDFKTDVD [YJL039C/NUP192]", "answer.label": "criterion met"}
{"biopolymer.sequence": "SAPPPALPHVEINQVSL [RGR1]", "answer.label": "criterion not met"}

Task item: Check if protein stability index >= 3 (inclusive). Item: QKNMNDLLRSQLTSLEK [YIL149C/MLP2]
Reply: criterion not met

###

Give measured protein stability index for each item. Keep answers brief.
# experimental.protocol: protein stability index of a GFP-peptide fusion (yeast GPS) (PSI 1-4); higher = more stable; sorted into four equal gates, so the index is relative within each strain
# cond: ubr1∆
Numbers only.

Each sequence below has a recorded value; state its protein stability index.
1. AVYGPRSIRGSFTSQGT [MTR3]
2. NKIDQSLQYIERQQDEL [YJL041W/NSP1]
3. YKAQADTFYMNVESVGS [RPB3]
4. PPEEFSNTIDELSTDII [SRB7]

Reply:
[3.02, 2.93, 3.07, 3.05]

###

# experimental.protocol: protein stability index of a GFP-peptide fusion (yeast GPS) (PSI 1-4); higher = more stable; sorted into four equal gates, so the index is relative within each strain
# cond: ubr1∆
quantity.measured: protein stability index
One number for each entry.

Below are worked cases with known answers.
{"biopolymer.sequence": "AIRRDARYNWICDPVHK [RPL15A]", "protein stability index": 3.18}
{"biopolymer.sequence": "YDSRPLEEDSKKVNGTS [PRP8]", "protein stability index": 2.94}

# input for lookup
Task item: Data request, read-out protein stability index, for QLDLCKLYFQLFLNTGC [SRP68]
Reply: 1.7

###

Please provide measured protein stability index for the entries that follow.
# experimental.protocol: protein stability index of a GFP-peptide fusion (yeast GPS) (PSI 1-4); higher = more stable; sorted into four equal gates, so the index is relative within each strain
# cond: san1∆
Give bare numbers.

{"biopolymer.sequence": "VKTSPDAKKCIAACTGV [FAS1]", "protein stability index": 3.01}
{"biopolymer.sequence": "IALNLASKKFGKICLIL [SSN2]", "protein stability index": 2.9}
{"biopolymer.sequence": "TVASSKVGYTLPSHIIS [RPL4A]", "protein stability index": 3.09}
{"biopolymer.sequence": "VLPLGSVPEGTIVSNVE [RPL2A]", "protein stability index": 2.78}
{"biopolymer.sequence": "ICEDPETAKKITFHPKI [SMC2]", "protein stability index": 2.16}

Okay, next one:
Task item: Item under review: FSSNERYFFWLQEKNSG [RPN13] . Reported protein stability index?
Reply: 2.18

###

Answer each item with its documented protein stability index.
# experimental.protocol: protein stability index of a GFP-peptide fusion (yeast GPS) (PSI 1-4); higher = more stable; sorted into four equal gates, so the index is relative within each strain
# cond: san1∆
One number for each entry.

# count of solved cases: 2
{"biopolymer.sequence": "IDNSPQAISYLHKLQRM [GRR1]", "protein stability index": 2.4}
{"biopolymer.sequence": "SEIWDVSRGQSAVLLET [PRP8]", "protein stability index": 3.12}

For every record below, what is its protein stability index?
1. IEANVTVKTSDDYVLRI [RPS1A]
2. MPGSQINSPMPQQAQMQ [SNF2]

Reply:
1. 2.96
2. 3.05
